- Test system: K-562 leukemia
- method description: NCI-60 one-dose screen, 48 h (100 = growth as untreated, 0 = no growth, -100 = all killed)
- measurement conditions: 10 µM unless noted
- Protocol: Cells are grown in 96 well plates and exposed to the test compound for 48 hours. Compounds are tested at a single concentration, which is 10^-5 M for most compounds. The reported endpoint is percent growth (GI% or GIPRCNT), where numbers from 0 - 100% represent growth inhibition, and numbers from -100% - 0 represent cell death. For example, a value of 40 represents 60% growth inhibition. A value of 0 means no net growth occurred over the course of the experiment. […]
Compounds without any hit were thinned out: in the full panel of roughly 83,000, 20% have a hit.
metric name: growth (%)
Answers are plain numbers, in %.

mol	metric name	endpoint value
COc1ccc(S(=O)(=O)c2ccc(C(N)=O)cc2)cc1NC(=O)c1[nH]c(C)c2c1CCCCC2=O	growth	46.5
COC(=O)[C@H]1CCCN1C(=O)[C@H]1CCCN1C(=O)[C@@H](Cc1c[nH]c2ccccc12)NC(=S)Nc1cc(C(F)(F)F)cc(C(F)(F)F)c1	growth	34.2
CCCCCCCC/C=C\CCCCCCCCOc1cccc(CC(=O)NCC[N+]2(C)CCCC2)c1	growth	60.2

[Q] Requested read-out: growth. Entry: Clc1ccc2c(c1)C[C@H]1C[C@@H](c3cccs3)N2O1
[A] 106

###

- Test system: MALME-3M melanoma
- method description: NCI-60 one-dose screen, 48 h (100 = growth as untreated, 0 = no growth, -100 = all killed)
- measurement conditions: 10 µM unless noted
- Protocol: Cells are grown in 96 well plates and exposed to the test compound for 48 hours. Compounds are tested at a single concentration, which is 10^-5 M for most compounds. The reported endpoint is percent growth (GI% or GIPRCNT), where numbers from 0 - 100% represent growth inhibition, and numbers from -100% - 0 represent cell death. For example, a value of 40 represents 60% growth inhibition. A value of 0 means no net growth occurred over the course of the experiment. […]
About 83,000 compounds went through this panel and 20% of them were active in at least one assay; those are over-represented in the sample as a whole. Calls of active or inactive are those of the source. Rule for the calls: active = growth percent below 10; inactive = the rest.
metric name: growth

Please review the entries below; each comes with its answer.
compound	growth
FC(F)(F)c1cc(CNc2ncc(Br)c(Cl)n2)cc(C(F)(F)F)c1	75.8% (inactive)
C=CC(=O)N1CC2(CC(n3nc(-c4ccc(Oc5ccccc5)cc4)c4c(N)ncnc43)C2)C1	12.7% (inactive)
COc1ncc(F)c(OC)n1	103% (inactive)
COC(=O)c1c2c(c(C)[n+]([O-])c1C)C(=O)C=C(NCc1cccc(OC)c1)C2=O	-98.9% (active)
O=c1c2cc(F)ccc2oc2c(NCCNCCO)nc3ccccc3c12	56.4% (inactive)
O=C(N/N=C/c1ccc(OC(F)F)c(OC2CCCC2)c1)c1cnn2c1NC(c1ccccc1)C2 (stereo unspecified)	108% (inactive)
O=c1[nH]c(=O)n(Cc2ccc(F)cc2)cc1F	101% [50 µM] (inactive)
O=C1CN2CCC1C/C2=C\c1ccnc2c(Cl)cccc12 (stereo unspecified)	112% (inactive)

For each of the items listed, what is its growth?
1. COc1ccc(CSc2nc3cc(OC)c(OC)cc3c(=O)n2-c2ccc(Cl)cc2)cc1
2. FCOC(C(F)(F)F)C(F)(F)F
3. COc1ccc(C2OCC(C)(C)CO2)cc1OC

[A]
107% (inactive)
92.2% (inactive)
107% (inactive)

###

- Test system: MDA-MB-231 breast
- method description: NCI-60 one-dose screen, 48 h (100 = growth as untreated, 0 = no growth, -100 = all killed)
- measurement conditions: 10 µM unless noted
The panel holds about 83,000 compounds, 20% with a hit somewhere; the sample as a whole holds those more often.
We use 70% as the dividing line for growth: on or above the line is class 1, below is class 0.

The following compounds have reported results that may help.
compound	classification
CCCCNNC(=O)c1ccc(Br)cc1	class 1
COc1ccc(-c2nc(Nc3ccc(F)cc3)nc(Nc3ccc4c(c3)nc(C)n4Cc3ccccc3)n2)cc1	class 0
CCOC(=O)c1c(Cl)c2c(n1Cc1ccc(OC)cc1)-c1oncc1CCC2	class 1
C=CCCCCCCCCC(=O)[O-].C=CCCCCCCCCC(=O)[O-].[Zn+2]	class 1
Cc1cc(=O)c2c(C)ccc(C)c2[nH]1	class 1
COc1cccc2c(=O)c3c(sc12)c(NCCN(C)C)nc1ccccc13	class 0

Next, consider the following compound.
[Q] Kindly determine if growth recorded for O=C(NCc1ccc(F)cc1)C1CN(c2ccc(Cl)cc2)N(c2ccc(Cl)cc2)C1=O (stereo not given) is above or exactly 70%.
[A] class 1

###

- Tested on: NCI-H460 lung
- method description: NCI-60 one-dose screen, 48 h
- measurement conditions: 10 µM unless noted
- Description: Growth inhibition of the NCI-H460 human Non-Small Cell Lung tumor cell line is measured as a screen for anti-cancer activity. Cells are grown in 96 well plates and exposed to the test compound for 48 hours. Compounds are tested at a single concentration, which is 10^-5 M for most compounds. The reported endpoint is percent growth (GI% or GIPRCNT), where numbers from 0 - 100% represent growth inhibition, and numbers from -100% - 0 represent cell death. […]
The panel holds about 83,000 compounds, 20% with a hit somewhere; the sample as a whole holds those more often. Active and inactive are the calls of the source. Rule for the calls: active = growth percent below 10; inactive = the rest.
Write down the outcome that applies. Available outcomes: T = active, F = inactive

[Q] Returns: the outcome recorded for CN1CCn2c(c(Sc3ccc(C(=O)NO)cc3)c3ccccc32)C1=O in this assay.
[A] F

[Q] Lab log entry: COc1ccc(-c2nc3sc(C)nn3c2-c2nc3cc(C)c(C)cc3[nH]2)cc1 — outcome as called in the assay?
[A] F

[Q] In this assay, the call recorded for CCCCCCCC/C=C\CCCCCCCCOc1cccc(CC(=O)NCC[N+](C)(C)C)c1 was what?
[A] F

[Q] Lab log entry: CN1CCN(C)c2cncc(Br)c2C1=O — outcome as called in the assay?
[A] F

[Q] Assay result, entry O=C(Nc1ccccc1)Oc1cccc2cccnc12 — outcome?
[A] F

[Q] // return assay outcome for Nc1c(Br)cc(Br)cc1-c1n[nH]c(=O)[nH]c1=O
[A] F

[Q] How did this test come out for COc1ccc(/C=N/OCC(O)CN2CCC(O)CC2)cc1OC1CCCC1 (stereo not drawn) ?
[A] F

[Q] Dear all, I need the recorded test outcome for COc1ccccc1/C=C/C(=O)/C=C/c1ccccc1O , thank you.
[A] T

[Q] Answer briefly: the call reported for O=c1onc(-c2ccccc2)c2ccccc12 in this assay.
[A] F

[Q] Returns: the outcome recorded for COc1ncc(F)c(OC)n1 in this assay.
[A] F

[Q] Can you look up the reported call for Cn1c2ccc(Cl)cc2c2nn(C(=O)c3ccccc3)c(=O)nc21 for me?
[A] F

###

- Tested on: MDA-MB-435 melanoma
- method description: NCI-60 one-dose screen, 48 h
- measurement conditions: 10 µM unless noted
Compounds without any hit were thinned out: in the full panel of roughly 83,000, 20% have a hit. Active and inactive are the calls of the source. The calls were made as follows: active = growth percent below 10; inactive = the rest.
I would appreciate it if you answered using one of these outcomes: active, inactive

compound	experimental system	classification
C[C@@H](Oc1cc(-c2cnn(C3CC4(CCCNC4)C3)c2)cnc1N)c1c(Cl)ccc(F)c1Cl (stereo not given in full)	MDA-MB-435 melanoma	inactive
COc1ccc(/C=N\N2CCOCC2)cc1OC1CCCC1	MDA-MB-435 melanoma	inactive

[Q] What was the test verdict on CSc1ccc(OC(C)=O)cc1C ?
[A] inactive

[Q] Answer briefly: the call reported for N#Cc1c(-c2cccc(F)c2)cc(-c2ccc(Br)s2)[nH]c1=O in this assay.
[A] active

[Q] Returns: the outcome recorded for O=c1c2cc(F)ccc2oc2c(NCCNCCO)nc3ccccc3c12 in this assay.
[A] inactive

[Q] # outcome recorded in this test, key = Clc1cccc(Cl)c1Nc1ccc2nnc(-c3ccncc3)n2n1
[A] inactive

[Q] Name the outcome recorded for Cc1nc2cc(Nc3nc(Nc4ccc(F)cc4)nc(-c4ccc(Cl)cc4)n3)ccc2n1Cc1ccccc1 in the assay.
[A] inactive

###

- Test system: LOX IMVI melanoma
- method description: NCI-60 one-dose screen, 48 h (100 = growth as untreated, 0 = no growth, -100 = all killed)
- measurement conditions: 10 µM unless noted
This is part of a sample that, as a whole, favours compounds with a hit. Of some 83,000 tested, about 20% had one in any assay.
Classification scheme (growth): low bracket: < 40%; middle bracket: ≥ 40% and < 80%; high bracket: ≥ 80%

Illustrative cases are given below, each with its answer.
molecule	classification
CC1(C)N=C(N)N=C(N)N1c1cccc(/C=C/C=C/c2cccc([N+](=O)[O-])c2)c1	low bracket
Cc1nc2cc(Nc3nc(Nc4ccc(F)cc4)nc(-c4cccs4)n3)ccc2n1Cc1ccccc1	middle bracket
COc1c(O)c2c3c(c1OC)-c1ccccc1CC3N(S(=O)(=O)c1ccc(C)cc1)CC2 (configuration not stated)	middle bracket

[Q] Which class holds COc1ccc(/C=N\N2CCOCC2)cc1OC1CCCC1 ?
[A] high bracket

[Q] For the record NC(=O)c1nc2c([nH]c1=O)CCCC2 , report the class its growth corresponds to.
[A] high bracket

[Q] Class for Clc1nc(-c2ccccn2)nc2sc3c(c12)CCCCCC3 ?
[A] middle bracket

[Q] Lab note: which band did O=C(CCCCCCC(=O)Nc1ccc2c(c1)/C(=C/c1ccc[nH]1)C(=O)N2)NO land in?
[A] low bracket

[Q] # bin lookup: classify FC(F)(F)c1cc(CNc2ncc(Br)c(Cl)n2)cc(C(F)(F)F)c1 by its growth
[A] high bracket

[Q] Quick check: band for C[C@@H](Oc1cc(-c2cnn(C3CC4(CCNCC4)C3)c2)cnc1N)c1c(F)ccc(Cl)c1Cl
[A] low bracket

[Q] Category of O=C(O)c1ccccc1Oc1cc(-c2ccco2)nc(OCCBr)n1 :
[A] high bracket

[Q] Exercise: read the entry COC(=O)c1c2c(c(C)[n+]([O-])c1C)C(=O)C=C(NCc1ccc(F)cc1)C2=O and state which class it falls under.
[A] low bracket

Value source: PubChem BioAssay (NCI)
